System: 171881-019-R-J1-PDC complex spheroid viability;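 note: spheroids exposed to agents for 7 days after 3 days growth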
Experiment: Anticancer human tumor 171881-019-R-J1-PDC patient-derived invasive breast carcinoma cell line growth inhibition
Conditions: second compound 0.1 µM; first compound 0.00949 µM; stronger effect = lower value
Listed below: viability, T/C values for each entry.

Compound	viability, T/C
Nc1ccn(C2OC(CO)C(O)C2(F)F)c(=O)n1 (stereo not drawn) + NC1CC1c1ccc(-c2cccc(O)c2)cc1	57.8%
COc1cc(C2c3cc4c(cc3C(OC3OC5COC(C)OC5C(O)C3O)C3COC(=O)C23)OCO4)cc(OC)c1O (stereo not drawn) + NC1CC1c1ccc(-c2cccc(O)c2)cc1	102%

Now consider the entry below.
query: Please look at this compound and report its viability, T/C: Nc1ncn(C2CC(O)C(CO)S2)c(=O)n1 (stereo not drawn) + NC1CC1c1ccc(-c2cccc(O)c2)cc1
result: 102%
